Source listed as patent US6441195B1.

test system: Soya beans; assay: Pre-emergence test/Greenhouse, Soya beans; assay type: in vivo; conditions: in vivo
degree of damage to the plants (% damage vs untreated control), Soya beans values by entry
Write the value in % as a bare number.

Examples with their reported degree of damage to the plants (% damage vs untreated control), Soya beans follow.
Which value of degree of damage to the plants (% damage vs untreated control), Soya beans has been reported for C=CCOc1nn(C(=O)NS(=O)(=O)c2c(C)cccc2C(=O)OC)c(=O)n1C1CC1 [Example 147] in the records? 0

Which value of degree of damage to the plants (% damage vs untreated control), Soya beans has been reported for CCCOC(=O)c1cccc(C)c1S(=O)(=O)NC(=O)n1nc(CCC)n(C)c1=O [Example 47] in the records? 10

Which value of degree of damage to the plants (% damage vs untreated control), Soya beans has been reported for Cc1csc(C(=O)OC(C)C)c1S(=O)(=O)NC(=O)n1nc(OC(C)C)n(C)c1=O [Example 84] in the records? 30

Alright, here's another compound for you.
Which value of degree of damage to the plants (% damage vs untreated control), Soya beans has been reported for CCCOC(=O)c1cccc(Cl)c1S(=O)(=O)NC(=O)n1nc(OCC)n(C)c1=O [Example 134] in the records? 20

---

degree of damage to the plants (% damage vs untreated control), Sorghum values by entry
test system: Sorghum; assay: Pre-emergence test/Greenhouse, Sorghum; format: in vivo; details: 125 g of ai./ha, after three weeks
Write the value in % as a bare number.

Examples with their reported degree of damage to the plants (% damage vs untreated control), Sorghum follow.
Which value of degree of damage to the plants (% damage vs untreated control), Sorghum has been reported for COC(=O)c1cccc(C)c1S(=O)(=O)NC(=O)n1nc(SCC(F)(F)F)n(C)c1=O in the records? 80

Which value of degree of damage to the plants (% damage vs untreated control), Sorghum has been reported for C#CCSc1nn(C(=O)NS(=O)(=O)c2c(C)csc2C(=O)OC)c(=O)n1C in the records? 80

Which value of degree of damage to the plants (% damage vs untreated control), Sorghum has been reported for CCCOC(=O)c1cccc(C)c1S(=O)(=O)NC(=O)n1nc(CCC)n(C)c1=O in the records? 60

Which value of degree of damage to the plants (% damage vs untreated control), Sorghum has been reported for CCCOC(=O)c1cccc(C)c1S(=O)(=O)NC(=O)n1nc(OCCC)n(C)c1=O in the records? 80

Which value of degree of damage to the plants (% damage vs untreated control), Sorghum has been reported for CCCOC(=O)c1scc(C)c1S(=O)(=O)NC(=O)n1nc(OC)n(C)c1=O in the records? 90

Which value of degree of damage to the plants (% damage vs untreated control), Sorghum has been reported for COC(=O)c1cccc(C)c1S(=O)(=O)NC(=O)n1nc(SCCF)n(C)c1=O in the records? 95

Which value of degree of damage to the plants (% damage vs untreated control), Sorghum has been reported for Cc1nc(C(=O)NS(=O)(=O)c2c(C)cccc2C(=O)OC(C)C)no1 in the records? 60

Which value of degree of damage to the plants (% damage vs untreated control), Sorghum has been reported for CCCOc1nn(C(=O)NS(=O)(=O)c2c(C)csc2C(=O)OC)c(=O)n1C in the records? 80

Which value of degree of damage to the plants (% damage vs untreated control), Sorghum has been reported for CCOc1nn(C(=O)NS(=O)(=O)c2c(OC)cccc2C(=O)OC)c(=O)n1C in the records? 90

New cases:
Which value of degree of damage to the plants (% damage vs untreated control), Sorghum has been reported for COC(=O)c1cccc(OC)c1S(=O)(=O)NC(=O)n1nc(OC(C)C)n(C2CC2)c1=O in the records? 90
